target: Estrogen receptor (Homo sapiens); assay: Antagonist activity at ER in human MCF7:WS8 cells assessed as inhibition of estradiol-induced cell growth by measuring DNA level after 7 days treated at highesy drug concentration by fluorescence analysis; assay type: cell-based
Assign inhibition to each entry below.
Field: numeric (%). Do not append units.

Q) Which inhibition is reported with Estrogen receptor (Homo sapiens) for this entry: `CCC(=C(c1ccc(O)cc1)c1ccc(O)cc1)c1ccc(O)cc1` ?
A) 20

Q) What would you report for `CNCCOc1ccc2c(c1)CCCC(c1ccccc1)=C2c1ccc(O)cc1` ?
A) 10

Q) What would you report for `CCC(=C(c1ccc(O)cc1)c1ccc(O)cc1)c1ccccc1` ?
A) 20

Q) What would you report for `CN(C)CCOc1ccc2c(c1)CCCC(c1ccccc1)=C2c1ccc(O)cc1` ?
A) 20

Q) What would you report for `CCOc1ccc(C2=C(c3ccccc3)CCCc3cc(O)ccc32)cc1` ?
A) 20

Q) What would you report for `CCOc1ccc2c(c1)CCCC(c1ccccc1)=C2c1ccc(O)cc1` ?
A) 20

Q) What would you report for `COc1ccc2c(c1)CCCC(c1ccccc1)=C2c1ccc(O)cc1` ?
A) 20

Q) What would you report for `COc1ccc(C2=C(c3ccccc3)CCCc3cc(O)ccc32)cc1` ?
A) 20
